All figures here come from patent US20130267494A1.

- Assayed target: human norepinephrine transporter (Homo sapiens)
- Construct: expressed in transfected cells
- Sequence (P23975 whole entry): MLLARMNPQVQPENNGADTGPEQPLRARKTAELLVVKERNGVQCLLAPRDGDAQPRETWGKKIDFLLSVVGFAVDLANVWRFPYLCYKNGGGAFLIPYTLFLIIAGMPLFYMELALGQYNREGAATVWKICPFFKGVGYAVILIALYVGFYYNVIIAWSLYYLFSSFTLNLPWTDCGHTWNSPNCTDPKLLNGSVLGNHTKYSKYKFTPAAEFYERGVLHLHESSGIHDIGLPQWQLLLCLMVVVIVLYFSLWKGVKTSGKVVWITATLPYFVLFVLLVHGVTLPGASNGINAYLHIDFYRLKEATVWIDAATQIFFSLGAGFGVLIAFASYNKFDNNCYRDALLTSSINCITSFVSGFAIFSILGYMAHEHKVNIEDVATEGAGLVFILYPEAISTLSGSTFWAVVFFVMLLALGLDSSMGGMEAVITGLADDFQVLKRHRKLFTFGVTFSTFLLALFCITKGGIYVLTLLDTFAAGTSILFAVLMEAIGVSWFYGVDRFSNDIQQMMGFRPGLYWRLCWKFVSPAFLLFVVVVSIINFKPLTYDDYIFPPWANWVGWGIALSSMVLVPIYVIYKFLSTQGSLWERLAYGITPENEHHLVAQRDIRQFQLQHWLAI
- Assay summary: Inhibitory action on human norepinephrine transporter ([3H]-norepinephrine uptake in CHO cells)
- Assay type: cell-based
- Condition summary: CHO, read-out: inhibitory rate (%), compound 1 μM; relative to inhibitory activity of 10 μM DMI as 100%
- Protocol: Human serotonin transporter cDNA was amplified from human brain cDNA library by PCR, and inserted into pCRII-TOPO vector (manufactured by Invitrogen). […] Then, an assay buffer (126 mM NaCl, 4.95 mM KCl, 1.26 mM KH2PO4, 1.26 mM MgSO4, 10 mM HEPES, 2.32 mM CaCl2, 5.52 mM Glucose, 0.5% BSA) was prepared, the medium in the cell plate was removed and the assay buffer was added by 80 μL. […] The radioactivity was measured by TopCount (PerkinElmer). […]
Structures can show the parent of a compound that is named as a salt.
Provide the recorded inhibition at 1 µM for the entries that follow.
One number for each entry, in %.

Examples with answers:
>>> measured("CC(=O)NC[C@@H]1CNCCO[C@H]1c1ccc(Cl)c(Cl)c1 [Example 32]")
93
>>> measured("O=c1[nH]c(-c2ccnn(C[C@@H]3CNCCO[C@H]3c3ccc(Cl)c(Cl)c3)c2=O)no1 [Example 209, monohydrochloride]")
101
>>> measured("O=C1NCCCN1C[C@@H]1CNCCO[C@H]1c1ccc(Cl)c(F)c1 [Example 372, monohydrochloride]")
103

Batch lookup, inhibition at 1 µM per entry.
1. OC[C@H]1CNCCO[C@@H]1c1ccc(Cl)c(Cl)c1 [Example 73, monohydrochloride]
2. O=c1[nH]c(-c2cccn(C[C@@H]3CNCCO[C@H]3c3ccc(Cl)c(F)c3)c2=O)no1 [Example 43, monohydrochloride]
3. CC(=O)N[C@@H]1CNCCO[C@H]1c1ccc(Cl)c(Cl)c1 [Example 36, monofumarate]
4. CC(=O)NC[C@H]1CNCCO[C@@H]1c1ccc(Cl)c(Cl)c1 (racemic) [Example 6, monohydrochloride]
5. OC[C@@H]1CNCCO[C@H]1c1ccc(F)c(Cl)c1 [Example 284, monofumarate]
6. OC[C@@H]1CNCCO[C@H]1c1ccc(Cl)c(Cl)c1 [Example 72, monohydrochloride]
7. NC(=O)NC[C@@H]1CNCCO[C@H]1c1ccc(Cl)c(Cl)c1 [Example 152, monofumarate]

98
102
101
95
96
95
95
